Molecular target: Mcl-1 (Homo sapiens (Human))
Experiment: Fluorescence polarization anisotropy (FPA) competition assay, FITC-Bak or FITC-Bim BH3 peptide
Type: binding
Conditions: read-out: Ki for Inhibition of Mcl-1 by FPA assay
Assay readout: Ki

Return reported Ki; argument: Cc1cc(OCCCc2c3n(c4c(-c5c(C)nn(C)c5C)c(Cl)ccc24)[C@H](C)CN(c2cc(C(=O)O)nc4c2ccn4C)C3=O)cc(C)c1Cl
< 1 nM

Return reported Ki; argument: Cc1cc(OCCCc2c3n(c4c(-c5c(C)ncnc5C)c(Cl)ccc24)[C@H](C)CN(c2nn(C)c4cccc(C(=O)O)c24)C3=O)cc(C)c1Cl
< 1 nM

Return reported Ki; argument: Cc1cc(OCCCc2c3n(c4c(-c5c(C)n[nH]c5C)c(Cl)ccc24)CCCN(c2cc(C(=O)O)c4cnn(C)c4c2)C3=O)cc(C)c1Cl
< 1 nM

Return reported Ki; argument: Cc1cc(OCCCc2c3n(c4c(-c5c(C)nn(C)c5C)c(Cl)ccc24)[C@H](C)CN(c2ccnc4ccc(-c5nn[nH]n5)cc24)C3=O)cc(C)c1Cl
< 1 nM

---

Test system: H929 human cancer cell lines
Test: Cellular viability / proliferation (Cell TiterGlo, 72 h)
Assay type: cell-based
Settings: Homo sapiens, NCI-H929, 72 h, read-out: GI50 on cellular proliferation of H929 human cancer cell lines, H929 cells, 72 h, Cell TiterGlo, 10% FBS
Assay readout: log10 GI50 (log10 of the value in nM)
Quick note: numbers are log10 of GI50, with nM as the unit.

Example cases with answers are listed next.
- Substance smiles: "CCn1nc(C(=O)O)c2cccc(N3C[C@@H](C)n4c(c(CCCOc5cc(C)c(Cl)c(C)c5)c5ccc(Cl)c(-c6c(C)nn(C)c6C)c54)C3=O)c21"
  Target: "H929 human cancer cell lines"
  log10 GI50: 2.91
- Substance smiles: "Cc1cc(OCCCc2c3n(c4c(-c5c(C)nn(C)c5C)c(Cl)ccc24)[C@H](C)CN(c2cccc4c(C(=O)O)nn(C)c24)C3=O)cc(C)c1Cl"
  Target: "H929 human cancer cell lines"
  log10 GI50: 2.45

Return reported log10 GI50; argument: Cc1cc(N2C[C@@H](C)n3c(c(CCCOc4cc(C)c(Cl)c(C)c4)c4ccc(Cl)c(-c5c(C)nn(C)c5C)c43)C2=O)c2c(c1)cc(C(=O)O)n2CC(=O)N1CCOCC1
3.28

Return reported log10 GI50; argument: Cc1cc(N2CCCn3c(c(CCCOc4cc(C)c(Cl)c(C)c4)c4ccc(Cl)c(-c5c(C)ncnc5C)c43)C2=O)c2c(c1)cc(C(=O)O)n2C
2.32

Return reported log10 GI50; argument: Cc1cc(OCCCc2c3n(c4c(-c5c(C)nn(C)c5C)c(Cl)ccc24)CCCN(Cc2cc(C(=O)O)ccn2)C3=O)cc(C)c1Cl
3.97

---

Molecular target: Mcl-1 (Homo sapiens (Human))
Test: TR-FRET binding assay, FITC-Bak peptide and MBP-tagged Mcl-1
Conditions: read-out: Ki for Inhibition of Mcl-1 by TR-FRET assay
Reported Ki values follow for various molecules

Example cases with answers are listed next.
- Molecule: "COCCOCCn1c(C(=O)O)cc2cccc(N3C[C@@H](C)n4c(c(CCCOc5cc(C)c(Cl)c(C)c5)c5ccc(Cl)c(-c6c(C)nn(C)c6C)c54)C3=O)c21 [Example 634]"
  Ki: "< 200 pM"
- Molecule: "COCCn1cc(C(=O)O)c2cccc(N3C[C@@H](C)n4c(c(CCCOc5cc(C)c(Cl)c(C)c5)c5ccc(Cl)c(-c6c(C)nn(C)c6C)c54)C3=O)c21 [Example 512]"
  Ki: "< 200 pM"

Return reported Ki; argument: Cc1cccc(Cn2cc(C(=O)O)c3cccc(N4C[C@@H](C)n5c(c(CCCOc6cc(C)c(Cl)c(C)c6)c6ccc(Cl)c(-c7c(C)nn(C)c7C)c65)C4=O)c32)n1 (single isomer, unassigned) [Example 491]
< 200 pM

---

Biological target: Mcl-1 (Homo sapiens (Human), UniProt Q07820)
Sequence (Q07820 172-327): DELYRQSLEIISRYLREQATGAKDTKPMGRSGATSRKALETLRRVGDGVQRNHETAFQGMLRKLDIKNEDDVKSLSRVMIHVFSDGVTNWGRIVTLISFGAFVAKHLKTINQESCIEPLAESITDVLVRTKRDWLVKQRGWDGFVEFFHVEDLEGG
Experiment: Fluorescence polarization anisotropy (FPA) competition assay, FITC-Bak or FITC-Bim BH3 peptide
Type: binding
Settings: read-out: Ki for Inhibition of Mcl-1 by FPA assay
Assay readout: Ki

- Substance smiles: "Cc1cc(OCCCc2c3n(c4c(-c5c(C)nn(C)c5C)c(Cl)ccc24)[C@H](C)CN(c2cn(C)c4c(C#N)cc(C(=O)O)cc24)C3=O)cc(C)c1Cl"
  Assay readout: "Ki"
  Result: "< 1 nM"
- Substance smiles: "Cc1cc(OCCCc2c3n(c4c(-c5c(C)nn(C)c5C)c(Cl)ccc24)[C@H](C)CN(c2ccc(Cl)c4c(C(=O)O)cn(C)c24)C3=O)cc(C)c1Cl"
  Assay readout: "Ki"
  Result: "< 1 nM"
- Substance smiles: "Cc1cc(OCCCc2c3n(c4c(-c5c(C)nn(C)c5C)c(Cl)ccc24)[C@H](C)CN(c2cccc4cc(C(=O)O)n(Cc5ccccc5)c24)C3=O)cc(C)c1Cl"
  Assay readout: "Ki"
  Result: "< 1 nM"
- Substance smiles: "Cc1cc(OCCCc2c3n(c4c(-c5c(C)ncnc5C)c(Cl)ccc24)[C@H](C)CN(c2cccc4cc(C(=O)O)cnc24)C3=O)cc(C)c1Cl"
  Assay readout: "Ki"
  Result: "< 1 nM"
- Substance smiles: "Cc1cc(OCCCc2c3n(c4c(-c5c(C)nn(CC6CCOCC6)c5C)c(Cl)ccc24)[C@H](C)CN(c2cccc4c(C(=O)O)cn(C)c24)C3=O)cc(C)c1Cl"
  Assay readout: "Ki"
  Result: "< 1 nM"
- Substance smiles: "COc1cc(N2C[C@@H](C)n3c(c(CCCOc4cc(C)c(Cl)c(C)c4)c4ccc(Cl)c(-c5c(C)nn(C)c5C)c43)C2=O)c2c(c1)c(C(=O)O)cn2C"
  Assay readout: "Ki"
  Result: "2.1 nM"
- Substance smiles: "Cc1cc(OCCCc2c3n(c4c(-c5c(C)nn(C)c5C)c(Cl)ccc24)[C@H](C)CN(c2cccc4nc(C(=O)O)ccc24)C3=O)cc(C)c1Cl"
  Assay readout: "Ki"
  Result: "< 1 nM"
- Substance smiles: "Cc1cc(OCCCc2c3n(c4c(-c5c(C)nc(CN6CCN(C)C(=O)C6)nc5C)c(Cl)ccc24)[C@H](C)CN(c2cn(C)c4ccc(C(=O)O)cc24)C3=O)cc(C)c1Cl"
  Assay readout: "Ki"
  Result: "< 1 nM"
- Substance smiles: "Cc1cc(OCCCc2c3n(c4c(-c5c(C)nn(C)c5C)c(Cl)ccc24)[C@H](C)CN(c2cccc4c(C(=O)O)c(C)n(C)c24)C3=O)cc(C)c1Cl"
  Assay readout: "Ki"
  Result: "1.3 nM"
- Substance smiles: "Cc1cc(OCCCc2c3n(c4c(-c5c(C)nn(C)c5C)c(Cl)ccc24)[C@H](C)CN(c2cn(C)c4ccc(-c5nnc(-c6ccccc6)o5)cc24)C3=O)cc(C)c1Cl"
  Assay readout: "Ki"
  Result: "3.4 nM"

# input for lookup
Return reported Ki; argument: Cc1cc(OCCCc2c3n(c4c(-c5c(C)ncnc5C)c(Cl)ccc24)CCCN(c2cc(C(=O)O)cc4c2OCCO4)C3=O)cc(C)c1Cl
< 1 nM

---

Tested on: H929 human cancer cell lines
Experiment: Cellular viability / proliferation (Cell TiterGlo, 72 h)
Type: cell-based
Conditions: Homo sapiens, NCI-H929, 72 h, read-out: GI50 on cellular proliferation of H929 human cancer cell lines, H929 cells, 72 h, Cell TiterGlo, 10% FBS
Assay readout: GI50

Example cases with answers are listed next.
- Molecule: "COCCOc1cc(N2C[C@@H](C)n3c(c(CCCOc4cc(C)c(Cl)c(C)c4)c4ccc(Cl)c(-c5c(C)ncnc5C)c43)C2=O)c2c(c1)cc(C(=O)O)n2Cc1cccc(C)n1 [Example 571]"
  GI50: "< 0.2 µM"
- Molecule: "Cc1cc(N2C[C@@H](C)n3c(c(CCCOc4cc(C)c(Cl)c(C)c4)c4ccc(Cl)c(-c5c(C)nn(C)c5C)c43)C2=O)c2c(c1)cc(C(=O)O)n2C [Example 201]"
  GI50: "< 0.2 µM"

# input for lookup
Return reported GI50; argument: Cc1cc(N2C[C@@H](C)n3c(c(CCCOc4cc(C)c(Cl)c(C)c4)c4ccc(Cl)c(-c5c(C)nn(C)c5C)c43)C2=O)c2c(c1)cc(C(=O)O)n2Cc1ccccn1 [Example 295]
< 0.2 µM

---

Target: Mcl-1 (Homo sapiens (Human), UniProt Q07820)
Test: Fluorescence polarization anisotropy (FPA) competition assay, FITC-Bak or FITC-Bim BH3 peptide
Format: binding
Settings: read-out: Ki for Inhibition of Mcl-1 by FPA assay
Assay readout: Ki
Respond with a number, then the unit of measure.

Example cases with answers are listed next.
- Substance smiles: "Cc1cc(OCCCc2c3n(c4c(-c5c(C)nn(C)c5C)c(Cl)ccc24)[C@H](C)CN(c2cn(C)c4ccc(C(=O)Nc5cccnc5)cc24)C3=O)cc(C)c1Cl"
  Target: "Mcl-1 (Homo sapiens (Human), UniProt Q07820)"
  Ki: "1.1 nM"
- Substance smiles: "Cc1cc(OCCCc2c3n(c4c(-c5c(C)nn(C)c5C)c(Cl)ccc24)[C@H](C)CN(c2ccc(F)c4cc[nH]c24)C3=O)cc(C)c1Cl"
  Target: "Mcl-1 (Homo sapiens (Human), UniProt Q07820)"
  Ki: "8.2 nM"
- Substance smiles: "Cc1cc(OCCCc2c3n(c4c(-c5c(C)nn(C)c5C)c(Cl)ccc24)[C@H](C)CN(c2cccc4c2cc(-c2nn[nH]n2)n4C)C3=O)cc(C)c1Cl"
  Target: "Mcl-1 (Homo sapiens (Human), UniProt Q07820)"
  Ki: "1.3 nM"

# input for lookup
Could you share what Ki was measured for CC[C@@H]1Cn2c(c(CCCOc3cc(C)c(Cl)c(C)c3)c3ccc(Cl)c(-c4c(C)nn(C)c4C)c32)C(=O)N1c1cccc(C(=O)O)c1 , tested on Mcl-1 (Homo sapiens (Human), UniProt Q07820)?
2.3 nM

Values from patent US11596639B2
